Hello, the source for this data is paper PMC12154458, in case you need it.

STUDY TARGET: rSmTAChE (Schistosoma mansoni);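 for Inhibition (%) (Average): mostly 20 µM final but a few compounds at 5 or 10 µM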
Sequence (A0A3Q0KMM5 27-661 limits assumed): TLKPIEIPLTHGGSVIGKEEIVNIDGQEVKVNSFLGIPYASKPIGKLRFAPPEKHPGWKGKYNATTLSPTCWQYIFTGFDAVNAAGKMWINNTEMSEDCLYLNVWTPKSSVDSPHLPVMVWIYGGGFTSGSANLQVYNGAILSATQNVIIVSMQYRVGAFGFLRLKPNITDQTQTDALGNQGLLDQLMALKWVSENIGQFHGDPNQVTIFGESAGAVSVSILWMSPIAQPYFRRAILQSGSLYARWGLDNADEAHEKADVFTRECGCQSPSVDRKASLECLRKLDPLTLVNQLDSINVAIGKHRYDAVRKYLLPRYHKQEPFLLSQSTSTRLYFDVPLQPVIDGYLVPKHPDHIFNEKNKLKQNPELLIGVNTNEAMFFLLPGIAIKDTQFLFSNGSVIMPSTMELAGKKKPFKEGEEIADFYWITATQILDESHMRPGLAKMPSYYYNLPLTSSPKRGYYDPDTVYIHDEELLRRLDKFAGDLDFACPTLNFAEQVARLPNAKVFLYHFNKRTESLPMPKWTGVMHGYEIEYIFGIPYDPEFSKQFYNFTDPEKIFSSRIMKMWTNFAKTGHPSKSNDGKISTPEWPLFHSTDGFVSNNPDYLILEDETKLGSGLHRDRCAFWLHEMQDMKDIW
PROTOCOL DETAILS: biochemical

[
  {
    "COMPOUND": "CCCC[C@@H](CC)COC(=O)/C=C/c1ccc(OC)cc1 [BRD-K19972289-001-01-4]",
    "Inhibition (%) (Average)": "64.81%"
  },
  {
    "COMPOUND": "CC(=O)c1cc([N+](=O)[O-])c(Sc2cccc(Cl)c2Cl)s1 [BRD-K13606314-001-01-3]",
    "Inhibition (%) (Average)": "73.95%"
  },
  {
    "COMPOUND": "CCCNC(=O)Nc1ccc(Oc2ncnc3cc(OC)c(OC)cc23)cc1Cl [BRD-K90993449-001-02-7]",
    "Inhibition (%) (Average)": "77.29%"
  },
  {
    "COMPOUND": "N#Cc1ccc(N2NC3=C(CCc4cc(C(=O)O)ccc43)[C@@H]2C2CCCC2)cc1Cl [BRD-K51041191-001-01-4]",
    "Inhibition (%) (Average)": "66.80%"
  },
  {
    "COMPOUND": "COc1cccc(C#Cc2ccc([C@@H]3[C@@H](C#N)N(C(=O)c4ccccn4)[C@@H]3CO)cc2)c1 [BRD-K66084396-004-02-2]",
    "Inhibition (%) (Average)": "72.85%"
  },
  {
    "COMPOUND": "O=C(C[C@H]1C[C@H]2c3cc(NC(=O)Nc4ccc(C(F)(F)F)cc4)ccc3O[C@H]2[C@@H](CO)O1)NC1CCCCC1 [BRD-K18925241-001-01-0]",
    "Inhibition (%) (Average)": "70.28%"
  },
  {
    "COMPOUND": "COc1ccccc1-c1cccc(-c2nc(C(=O)NCc3ccncc3)cc3c2[C@@H](CCO)N([S@+]([O-])C(C)(C)C)C3)c1 [BRD-K32310489-001-03-4]",
    "Inhibition (%) (Average)": "64.60%"
  }
]
